As shown below, each of these molecules has a reported kcat value.
target: recombinant cathepsin V (Homo sapiens, UniProt O60911); assay: Enzyme kinetics / turnover of quenched substrates with recombinant cathepsin V; format: biochemical; conditions: recombinant cathepsin V, 5 nM enzyme, citrate buffer pH 5.5, 37° C.
Sequence (O60911 114-334): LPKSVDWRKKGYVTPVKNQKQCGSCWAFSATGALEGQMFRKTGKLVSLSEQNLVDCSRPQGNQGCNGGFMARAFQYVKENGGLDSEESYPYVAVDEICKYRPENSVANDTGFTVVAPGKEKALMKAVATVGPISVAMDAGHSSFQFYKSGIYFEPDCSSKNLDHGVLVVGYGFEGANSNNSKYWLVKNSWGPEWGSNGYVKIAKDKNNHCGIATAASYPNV

{"columns": ["MOLECULE SMILES", "RESULT UNITS", "kcat"],
 "data": [
  ["CC[N+]1=C(C=CC=CC=C2N(CCCCCC(=O)NCCCC[C@H](NC(=O)[C@H](Cc3ccccc3)NC(=O)OCc3ccccc3)C(=O)NCCNC(=O)C3CCN(S(=O)(=O)c4ccccc4-c4c5ccc(=[N+]6CCc7cc(S(=O)(=O)O)ccc76)cc-5oc5cc(N6CCc7cc(S(=O)(=O)O)ccc76)ccc45)CC3)c3ccc(S(=O)(=O)O)cc3C2(C)C)C(C)(C)c2cc(S(=O)(=O)O)ccc21", "s⁻¹", 0.014],
  ["CC[N+]1=C(C=CC=CC=C2N(CCCCCC(=O)NCCCC[C@H](NC(=O)[C@H](Cc3ccccc3)NC(=O)OCc3ccccc3)C(=O)NCCCCNC(=O)C3CCN(S(=O)(=O)c4ccccc4-c4c5ccc(=[N+]6CCc7cc(S(=O)(=O)O)ccc76)cc-5oc5cc(N6CCc7cc(S(=O)(=O)O)ccc76)ccc45)CC3)c3ccc(S(=O)(=O)O)cc3C2(C)C)C(C)(C)c2cc(S(=O)(=O)O)ccc21", "s⁻¹", 0.073],
  ["CC[N+]1=C(C=CC=CC=C2N(CCCCCC(=O)NCCNC(=O)[C@H](CCCCNC(=O)C3CCN(S(=O)(=O)c4ccccc4-c4c5ccc(=[N+]6CCc7cc(S(=O)(=O)O)ccc76)cc-5oc5cc(N6CCc7cc(S(=O)(=O)O)ccc76)ccc45)CC3)NC(=O)[C@H](Cc3ccccc3)NC(=O)OCc3ccccc3)c3ccc(S(=O)(=O)O)cc3C2(C)C)C(C)(C)c2cc(S(=O)(=O)O)ccc21", "s⁻¹", 0.008]
]}

* * *

target: recombinant cathepsin L (Homo sapiens, UniProt P07711); assay: Enzyme kinetics / turnover of quenched substrates with recombinant cathepsin L; type: biochemical; conditions: recombinant cathepsin L, 5 nM enzyme, 50 mM citrate buffer pH 5.5, 37° C.; average of three replicates ± standard error
Sequence (P07711 114-333, species assumed): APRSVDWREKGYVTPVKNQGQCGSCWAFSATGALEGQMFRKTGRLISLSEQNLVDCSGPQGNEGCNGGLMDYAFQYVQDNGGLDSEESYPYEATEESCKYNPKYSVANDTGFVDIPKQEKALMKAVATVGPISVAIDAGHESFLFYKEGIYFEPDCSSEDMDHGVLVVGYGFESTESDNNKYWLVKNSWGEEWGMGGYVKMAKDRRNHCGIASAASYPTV

{"columns": ["COMPOUND", "TGT", "Km, µM"],
 "data": [
  ["CC[N+]1=C(C=CC=CC=C2N(CCCCCC(=O)NCCCCNC(=O)[C@H](CCCCNC(=O)C3CCN(S(=O)(=O)c4ccccc4-c4c5ccc(=[N+]6CCc7cc(S(=O)(=O)O)ccc76)cc-5oc5cc(N6CCc7cc(S(=O)(=O)O)ccc76)ccc45)CC3)NC(=O)[C@H](Cc3ccccc3)NC(=O)OCc3ccccc3)c3ccc(S(=O)(=O)O)cc3C2(C)C)C(C)(C)c2cc(S(=O)(=O)O)ccc21 [4QC]", "recombinant cathepsin L (Homo sapiens, UniProt P07711)", 8.6],
  ["CC[N+]1=C(C=CC=CC=C2N(CCCCCC(=O)NCCNC(=O)[C@H](CCCCNC(=O)C3CCN(S(=O)(=O)c4ccccc4-c4c5ccc(=[N+]6CCc7cc(S(=O)(=O)O)ccc76)cc-5oc5cc(N6CCc7cc(S(=O)(=O)O)ccc76)ccc45)CC3)NC(=O)[C@H](Cc3ccccc3)NC(=O)OCc3ccccc3)c3ccc(S(=O)(=O)O)cc3C2(C)C)C(C)(C)c2cc(S(=O)(=O)O)ccc21 [2QC]", "recombinant cathepsin L (Homo sapiens, UniProt P07711)", 6.5],
  ["CC[N+]1=C(C=CC=CC=C2N(CCCCCC(=O)NCCCC[C@H](NC(=O)[C@H](Cc3ccccc3)NC(=O)OCc3ccccc3)C(=O)NCCCCNC(=O)C3CCN(S(=O)(=O)c4ccccc4-c4c5ccc(=[N+]6CCc7cc(S(=O)(=O)O)ccc76)cc-5oc5cc(N6CCc7cc(S(=O)(=O)O)ccc76)ccc45)CC3)c3ccc(S(=O)(=O)O)cc3C2(C)C)C(C)(C)c2cc(S(=O)(=O)O)ccc21 [4CQ]", "recombinant cathepsin L (Homo sapiens, UniProt P07711)", 4.6],
  ["CC[N+]1=C(C=CC=CC=C2N(CCCCCC(=O)NCCCC[C@H](NC(=O)[C@H](Cc3ccccc3)NC(=O)OCc3ccccc3)C(=O)NCCNC(=O)C3CCN(S(=O)(=O)c4ccccc4-c4c5ccc(=[N+]6CCc7cc(S(=O)(=O)O)ccc76)cc-5oc5cc(N6CCc7cc(S(=O)(=O)O)ccc76)ccc45)CC3)c3ccc(S(=O)(=O)O)cc3C2(C)C)C(C)(C)c2cc(S(=O)(=O)O)ccc21 [2CQ]", "recombinant cathepsin L (Homo sapiens, UniProt P07711)", 6.4],
  ["CC[N+]1=C(C=CC=CC=C2N(CCCCCC(=O)NCCCCCCNC(=O)[C@H](CCCCNC(=O)C3CCN(S(=O)(=O)c4ccccc4-c4c5ccc(=[N+]6CCc7cc(S(=O)(=O)O)ccc76)cc-5oc5cc(N6CCc7cc(S(=O)(=O)O)ccc76)ccc45)CC3)NC(=O)[C@H](Cc3ccccc3)NC(=O)OCc3ccccc3)c3ccc(S(=O)(=O)O)cc3C2(C)C)C(C)(C)c2cc(S(=O)(=O)O)ccc21 [6QC]", "recombinant cathepsin L (Homo sapiens, UniProt P07711)", 5.3],
  ["CC[N+]1=C(C=CC=CC=C2N(CCCCCC(=O)NCCCC[C@H](NC(=O)[C@H](Cc3ccccc3)NC(=O)OCc3ccccc3)C(=O)NCCCCCCNC(=O)C3CCN(S(=O)(=O)c4ccccc4-c4c5ccc(=[N+]6CCc7cc(S(=O)(=O)O)ccc76)cc-5oc5cc(N6CCc7cc(S(=O)(=O)O)ccc76)ccc45)CC3)c3ccc(S(=O)(=O)O)cc3C2(C)C)C(C)(C)c2cc(S(=O)(=O)O)ccc21 [6CQ]", "recombinant cathepsin L (Homo sapiens, UniProt P07711)", 5.4]
]}

* * *

molecular target: recombinant cathepsin V (Homo sapiens); test: Enzyme kinetics / turnover of quenched substrates with recombinant cathepsin V; assay type: biochemical; conditions: recombinant cathepsin V, 5 nM enzyme, 50 mM citrate buffer pH 5.5, 37° C.; average of three replicates ± standard error
As shown below, each of these compounds has a reported Km value.

{"columns": ["MOLECULE SMILES", "TGT", "Km (µM)"],
 "data": [
  ["CC[N+]1=C(C=CC=CC=C2N(CCCCCC(=O)NCCCC[C@H](NC(=O)[C@H](Cc3ccccc3)NC(=O)OCc3ccccc3)C(=O)NCCCCNC(=O)C3CCN(S(=O)(=O)c4ccccc4-c4c5ccc(=[N+]6CCc7cc(S(=O)(=O)O)ccc76)cc-5oc5cc(N6CCc7cc(S(=O)(=O)O)ccc76)ccc45)CC3)c3ccc(S(=O)(=O)O)cc3C2(C)C)C(C)(C)c2cc(S(=O)(=O)O)ccc21", "recombinant cathepsin V (Homo sapiens)", 3.4],
  ["CC[N+]1=C(C=CC=CC=C2N(CCCCCC(=O)NCCCC[C@H](NC(=O)[C@H](Cc3ccccc3)NC(=O)OCc3ccccc3)C(=O)NCCNC(=O)C3CCN(S(=O)(=O)c4ccccc4-c4c5ccc(=[N+]6CCc7cc(S(=O)(=O)O)ccc76)cc-5oc5cc(N6CCc7cc(S(=O)(=O)O)ccc76)ccc45)CC3)c3ccc(S(=O)(=O)O)cc3C2(C)C)C(C)(C)c2cc(S(=O)(=O)O)ccc21", "recombinant cathepsin V (Homo sapiens)", 5],
  ["CC[N+]1=C(C=CC=CC=C2N(CCCCCC(=O)NCCCCCCNC(=O)[C@H](CCCCNC(=O)C3CCN(S(=O)(=O)c4ccccc4-c4c5ccc(=[N+]6CCc7cc(S(=O)(=O)O)ccc76)cc-5oc5cc(N6CCc7cc(S(=O)(=O)O)ccc76)ccc45)CC3)NC(=O)[C@H](Cc3ccccc3)NC(=O)OCc3ccccc3)c3ccc(S(=O)(=O)O)cc3C2(C)C)C(C)(C)c2cc(S(=O)(=O)O)ccc21", "recombinant cathepsin V (Homo sapiens)", 4.4]
]}

* * *

Molecular target: recombinant cathepsin V (Homo sapiens, UniProt O60911)
Test: Enzyme kinetics / turnover of quenched substrates with recombinant cathepsin V
Assay type: biochemical
Settings: recombinant cathepsin V, 5 nM enzyme, citrate buffer pH 5.5, 37° C.
Method: The activity and selectivity of all 6 substrates were determined by monitoring the turnover curves of each internally quenched probe in the presence of various recombinant cysteine proteases, specifically cathepsins L, S, K, B, and V. Equal concentration (5 nM) of each enzyme was incubated with the different probes in 50 mM citrate buffer (pH=5.5, 5 mM DTT, 0.1% triton X, 0.5% CHAPS) at 37° C. […]
As shown below, each of these compounds has a reported kcat value.

{"columns": ["MOLECULE SMILES", "kcat"],
 "data": [
  ["CC[N+]1=C(C=CC=CC=C2N(CCCCCC(=O)NCCCCNC(=O)[C@H](CCCCNC(=O)C3CCN(S(=O)(=O)c4ccccc4-c4c5ccc(=[N+]6CCc7cc(S(=O)(=O)O)ccc76)cc-5oc5cc(N6CCc7cc(S(=O)(=O)O)ccc76)ccc45)CC3)NC(=O)[C@H](Cc3ccccc3)NC(=O)OCc3ccccc3)c3ccc(S(=O)(=O)O)cc3C2(C)C)C(C)(C)c2cc(S(=O)(=O)O)ccc21", "0.188 s⁻¹"],
  ["CC[N+]1=C(C=CC=CC=C2N(CCCCCC(=O)NCCCC[C@H](NC(=O)[C@H](Cc3ccccc3)NC(=O)OCc3ccccc3)C(=O)NCCCCCCNC(=O)C3CCN(S(=O)(=O)c4ccccc4-c4c5ccc(=[N+]6CCc7cc(S(=O)(=O)O)ccc76)cc-5oc5cc(N6CCc7cc(S(=O)(=O)O)ccc76)ccc45)CC3)c3ccc(S(=O)(=O)O)cc3C2(C)C)C(C)(C)c2cc(S(=O)(=O)O)ccc21", "0.164 s⁻¹"],
  ["CC[N+]1=C(C=CC=CC=C2N(CCCCCC(=O)NCCCCCCNC(=O)[C@H](CCCCNC(=O)C3CCN(S(=O)(=O)c4ccccc4-c4c5ccc(=[N+]6CCc7cc(S(=O)(=O)O)ccc76)cc-5oc5cc(N6CCc7cc(S(=O)(=O)O)ccc76)ccc45)CC3)NC(=O)[C@H](Cc3ccccc3)NC(=O)OCc3ccccc3)c3ccc(S(=O)(=O)O)cc3C2(C)C)C(C)(C)c2cc(S(=O)(=O)O)ccc21", "0.150 s⁻¹"]
]}
